- Assay Explanation: Cytotoxicity against human WI38 cells assessed as reduction in cell viability after 48 hrs by MTT assay
- Format: toxicity, cell-based, WI-38
Give measured IC50 at 48 h for each item. Keep answers brief.
Answers are plain numbers, in µM.

The examples below pair each entry with its known result.
[[record]]
query_smiles = "Cc1cccc(C(=O)/C=C/c2ccc3c(c2)B(O)OC3)c1"
units_symbol = "µM"
reading = 16.7

[[record]]
query_smiles = "O=C(/C=C/c1ccc2c(c1)B(O)OC2)c1cccnc1"
units_symbol = "µM"
reading = 76.2

[[record]]
query_smiles = "O=C(/C=C/c1ccc2c(c1)B(O)OC2)c1ccc(-c2ccccc2)cc1"
units_symbol = "µM"
reading = 18.3


Would you be so kind as to report IC50 at 48 h for each listed record?
1. COCOc1cccc(C(=O)/C=C/c2ccc3c(c2)B(O)OC3)c1
2. CCOC(=O)c1ccc(C(=O)/C=C/c2ccc3c(c2)B(O)OC3)cc1

1. 33.2
2. 47.2

Would you be so kind as to report IC50 at 48 h for each listed record?
1. O=C(/C=C/c1ccc2c(c1)B(O)OC2)c1ccc(Cl)c(Cl)c1
2. O=C(/C=C/c1ccc2c(c1)B(O)OC2)c1ccccc1
3. O=C(/C=C/c1ccc2c(c1)B(O)OC2)c1ccc(Cl)cc1
4. O=C(/C=C/c1ccc2c(c1)B(O)OC2)c1ccco1
5. COc1cc(C(=O)/C=C/c2ccc3c(c2)B(O)OC3)ccc1[N+](=O)[O-]
6. COc1cccc(C(=O)/C=C/c2ccc3c(c2)B(O)OC3)c1

1: 12.5; 2: 19.1; 3: 24.7; 4: 59; 5: 26; 6: 14.6

Would you be so kind as to report IC50 at 48 h for each listed record?
1. O=C(/C=C/c1ccc2c(c1)B(O)OC2)c1ccc(F)cc1
2. O=C(/C=C/c1ccc2c(c1)B(O)OC2)c1ccc(Br)cc1
3. O=C(/C=C/c1ccc2c(c1)B(O)OC2)c1cccc2ccccc12
4. O=C(/C=C/c1ccc2c(c1)B(O)OC2)c1ccc2c(c1)OCCO2
5. O=C(/C=C/c1ccc2c(c1)B(O)OC2)c1cccc(O)c1

[7.6, 36.7, 18.8, 30.2, 26.4]

====

- Assay Explanation: Selectivity ratio of IC50 for human WI38 cells to IC50 for human MDA-MB-231 cells
- Assay type: ADME, cell-based, WI-38
- Test Parameters: WI38 cells versus MDA-MB-231 cells, read-out: Ratio IC50
Readout Name: selectivity ratio
Numbers only.

Lab note: measured selectivity ratio of O=C(/C=C/c1ccc2c(c1)B(O)OC2)c1ccccc1 was 8

====

- Assay Explanation: Selectivity ratio of IC50 for human WI38 cells to IC50 for human SKOV3 cells
- Format: ADME, cell-based, SK-OV-3
- Test Parameters: WI38 cells versus SKOV3 cells, read-out: Ratio IC50
Readout Name: selectivity ratio

Lab note: measured selectivity ratio of O=C(/C=C/c1ccc2c(c1)B(O)OC2)c1ccc(I)cc1 was > 25

====

- Assay Explanation: Cytotoxicity against human MCF10A cells assessed as reduction in cell viability after 48 hrs by MTT assay
- Assay type: toxicity, cell-based, MCF-10A
Criterion: IC50 at 48 h strictly less than 20 µM. Met: t. Not met: f.

Quick check: does O=C(/C=C/c1ccc2c(c1)B(O)OC2)c1ccc(Cl)c(Cl)c1 have IC50 at 48 h under 20 µM?
t

Quick check: does O=C(/C=C/c1ccc2c(c1)B(O)OC2)c1cccc(O)c1 have IC50 at 48 h under 20 µM?
f
